MEASURED_TARGET: T1, human EpCAM (human, UniProt P16422 24-314)
T1 sequence (looked up): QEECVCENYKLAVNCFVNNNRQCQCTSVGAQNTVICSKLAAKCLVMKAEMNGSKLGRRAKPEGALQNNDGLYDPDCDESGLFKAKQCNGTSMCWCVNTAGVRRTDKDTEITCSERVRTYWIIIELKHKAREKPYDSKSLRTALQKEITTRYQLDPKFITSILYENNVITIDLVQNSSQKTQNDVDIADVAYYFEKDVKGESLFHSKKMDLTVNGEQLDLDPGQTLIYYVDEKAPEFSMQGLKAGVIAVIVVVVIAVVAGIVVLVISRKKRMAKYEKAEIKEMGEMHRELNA
ASSAY: cell-based or functional assay
READOUT_NAME: % viable COLO205 cells, 1 nM (%)
Write it as a number; the unit % goes unstated.

Sample answers from the record:
BINDER	% viable COLO205 cells, 1 nM (%)
ISOP130R5CP6_F02srt vcMMAF conjugate (designed binder, vcMMAF conjugated via the sortase reaction at the C-terminal sortase tag (Gly3-vcMMAF)) MLPAPKNLVVSRVTEDSARLSWDQYRKYAGFDSFLIQYQESEKVGEAIVLTVPGSERSYDLTGLKPGTEYTVSIYGVVTHALPQTYQSNPLSAIFTTGGHHHHHHGGLPETGGH	90
ISOP130R5CP7_G02srt vcMMAF conjugate (designed binder, vcMMAF conjugated via the sortase reaction at the C-terminal sortase tag (Gly3-vcMMAF)) MLPAPKNLVVSRVTEDSARLSWKHYRPGARFDSFLIQYQESEKVGEAIILTVPGSERSYDLTGLKPGTEYTVSIYGVVTHALPTAYTSNPLSAIFTTGGHHHHHHGGLPETGGH	39
ISOP130R5CP7_F11srt vcMMAF conjugate (designed binder, vcMMAF conjugated via the sortase reaction at the C-terminal sortase tag (Gly3-vcMMAF)) MLPAPKNLVVSRVTEDSARLSWKHYRPGARFDSFLIQYQESEKVGEAIVLTVPGSERSYDLTGLKPGTEYTVSIYGVIWGALPNSYSSNPLSAIFTTGGHHHHHHGGLPETGGH	81

Lab note: measured % viable COLO205 cells, 1 nM of ISOP130R5CP6_E08srt vcMMAF conjugate (designed binder, vcMMAF conjugated via the sortase reaction at the C-terminal sortase tag (Gly3-vcMMAF)) MLPAPKNLVVSRVTEDSARLSWKHYRPGARFDSFLIQYQESEKVGEAIVLTVPGSERSYDLTGLKPGTEYTVSIYGVVAALPNNYASNPLSAIFTTGGHHHHHHGGLPETGGH was 66

Lab note: measured % viable COLO205 cells, 1 nM of ISOP130R5CP6_A06srt vcMMAF conjugate (designed binder, vcMMAF conjugated via the sortase reaction at the C-terminal sortase tag (Gly3-vcMMAF)) MLPAPKNLVVSRVTEDSARLSWKHYRPGARFDSFLIQYQESEKVGEAIVLTVPGSERSYDLTGLKPGTEYTVSIYGVVTALPSYYSSNPLSAIFTTGGHHHHHHGGLPETGGH was 67

Lab note: measured % viable COLO205 cells, 1 nM of ISOP130R5CP6_F01srt vcMMAF conjugate (designed binder, vcMMAF conjugated via the sortase reaction at the C-terminal sortase tag (Gly3-vcMMAF)) MLPAPKNLVVSRVTEDSARLSWKHYRPGARFDSFLIQYQESEKVGEAIVLTVPGSERSYDLTGLKPGTEYTVSIYGVVTALPSNYISNPLSAIFTTGGHHHHHHGGLPETGGH was 43

Lab note: measured % viable COLO205 cells, 1 nM of ISOP130R5CP6_A02srt vcMMAF conjugate (designed binder, vcMMAF conjugated via the sortase reaction at the C-terminal sortase tag (Gly3-vcMMAF)) MLPAPKNLVVSRVTEDSARLSWKHYRPGARFDSFLIQYQESEKVGEAIVLTVPGSERSYDLTGLKPGTEYTVSIYGVVNNALPRWYISNPLSAIFTTGGHHHHHHGGLPETGGH was 66
